target_system: Muscarinic acetylcholine receptor M5 (Rattus norvegicus)
Sequence (P08911 whole entry): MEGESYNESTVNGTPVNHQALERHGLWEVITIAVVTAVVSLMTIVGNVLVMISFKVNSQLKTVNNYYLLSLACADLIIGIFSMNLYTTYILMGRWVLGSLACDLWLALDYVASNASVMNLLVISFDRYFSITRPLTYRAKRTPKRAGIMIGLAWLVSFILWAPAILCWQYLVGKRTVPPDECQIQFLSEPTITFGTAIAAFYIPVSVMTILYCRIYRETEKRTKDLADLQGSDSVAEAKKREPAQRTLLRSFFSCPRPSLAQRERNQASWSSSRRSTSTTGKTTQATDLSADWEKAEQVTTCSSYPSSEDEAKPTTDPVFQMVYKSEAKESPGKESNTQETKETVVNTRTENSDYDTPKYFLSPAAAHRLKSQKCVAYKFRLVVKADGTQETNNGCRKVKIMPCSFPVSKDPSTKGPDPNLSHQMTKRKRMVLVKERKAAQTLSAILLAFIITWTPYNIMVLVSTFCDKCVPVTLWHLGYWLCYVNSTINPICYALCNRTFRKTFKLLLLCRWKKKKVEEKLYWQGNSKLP
method: Binding affinity to rat M5 receptor by radio-ligand binding assay
pEC50: −log10 of the molar value.

structure_string: Cc1nnc2sc(C(=O)NCc3ccc(S(=O)(=O)C(F)(F)F)cc3)c(N)c2c1C
target_system: Muscarinic acetylcholine receptor M5 (Rattus norvegicus)
pEC50: < 4.52
//
structure_string: Cc1nnc2sc(C(=O)NCc3ccc(S(=O)(=O)C(F)F)cc3)c(N)c2c1C
target_system: Muscarinic acetylcholine receptor M5 (Rattus norvegicus)
pEC50: < 4.52
//
structure_string: Cc1nnc2sc(C(=O)NCc3ccc(S(F)(F)(F)(F)F)cc3)c(N)c2c1C
target_system: Muscarinic acetylcholine receptor M5 (Rattus norvegicus)
pEC50: < 4.52

###

method: Unbound fraction in rat plasma
Type: ADME, cell-free
quantity_kind: fraction unbound

structure_string: Cc1nnc2sc(C(=O)NCc3ccc(S(=O)(=O)C(F)(F)F)cc3)c(N)c2c1C
quantity_kind: fraction unbound
recorded_value: 0.031

###

Catalogue of CLint scaled values
method: Intrinsic clearance in human
Format: ADME

structure_string: Cc1nnc2sc(C(=O)NCc3ccc(S(=O)(=O)C(F)(F)F)cc3)c(N)c2c1C
CLint scaled / mL/min/kg: 19.8

structure_string: Cc1nnc2sc(C(=O)NCc3ccc(S(F)(F)(F)(F)F)cc3)c(N)c2c1C
CLint scaled / mL/min/kg: 52.8

structure_string: Cc1nnc2sc(C(=O)NCc3ccc(S(=O)(=O)C(F)F)cc3)c(N)c2c1C
CLint scaled / mL/min/kg: 15.6

###

# clearance values compiled below
method: Plasma clearance in Sprague-Dawley rat at 1 mg/kg, iv
Format: ADME, organism-based

structure_string: Cc1nnc2sc(C(=O)NCc3ccc(S(F)(F)(F)(F)F)cc3)c(N)c2c1C
clearance, mL/min/kg: 12

structure_string: Cc1nnc2sc(C(=O)NCc3ccc(S(=O)(=O)C(F)F)cc3)c(N)c2c1C
clearance, mL/min/kg: 16

###

Parameter: half-life. Scope: all listed entries.
method: Half life in Sprague-Dawley rat at 1 mg/kg, iv
Type: ADME, organism-based
measurement_setup: Sprague-Dawley, in vivo

structure_string: Cc1nnc2sc(C(=O)NCc3ccc(S(=O)(=O)C(F)F)cc3)c(N)c2c1C
result_units: h
half-life: 2.4

structure_string: Cc1nnc2sc(C(=O)NCc3ccc(S(F)(F)(F)(F)F)cc3)c(N)c2c1C
result_units: h
half-life: 3.6
